Test system: HCC-2998 colon
Assay: NCI tumour cell line growth inhibition, 48 h
Where a SMILES comes first, the peptide text is derived from it. [ ]: non-standard residue; d: D form. The star is where a group is joined. Tyr(3-Br) = N[C@@H](Cc1ccc(O)c(Br)c1)C(=O)O; Boc = CC(C)(C)OC(=O)*
compounds and their reported TGI
quantity_name: TGI

1) O=C(NNC(c1ccccc1)C(F)(F)F)c1ccncc1 (stereo not given)    > 100 µM
2) O=C(Cc1csc(-c2nc(CC(=O)NNc3ccccc3)cs2)n1)NNc1ccccc1    > 100 µM
3) CC1(C)OB(O)OC1(C)C    > 100 µM
4) CN(C)Cc1cc(C(C)(C)C)ccc1-c1ccc(C(C)(C)C)cc1CN(C)C    23.5 µM
5) CC1(C)CC23CC(C)(C)c4cccc(c42)OCc2ccc4ccc5ccc(nc5c4n2)COc2cccc1c23    > 50 µM
6) O=C(Nc1ccccc1O)c1ccc(CNc2ccnc(C(F)(F)F)c2)cc1    26.5 µM
7) CS(=O)(=O)c1c(N)c2nc(Cl)cn2c2nc3ccccc3nc12    > 100 µM
8) CC(C)C1CC2C(=O)N(c3ccccc3)C(=O)C2c2[nH]c3ccccc3c21 (stereo not given)    > 100 µM
9) O=C1c2ccccc2NC1(c1ccccc1)c1c(-c2ccccc2)[nH]c2ccccc12 (stereo not given)    > 100 µM
10) COC1=CC23CCCN2CCc2cc4c(cc2C3C1O)OCO4 (stereo not given)    > 100 µM
11) O=C(Cc1csc(N=Nc2c(O)[nH]c3ccccc23)n1)Nc1ccccc1    94.3 µM
12) N#CSc1c[nH]c2ccc(/C=C/C(=O)/C=C(/C=C/c3ccc4[nH]cc(SC#N)c4c3)OB(F)F)cc12    19.7 µM
13) COc1cc(C=C2C(C)=NN(c3cccc(Cl)c3)C23C(Cl)C(=O)N3c2nc3ccccc3s2)ccc1O (stereo not given)    9.16 µM
14) CCOC(=O)C(=O)Nc1ccc(Cl)cc1C    > 100 µM
15) COC(=O)CCC(=O)Nc1cc(Cl)ccc1Cl    > 100 µM
16) O=c1cc(-c2ccccc2)oc2cc(O)cc(O)c12    38.6 µM
17) COC(=O)c1cccc(N[C@@H]2c3cc4c(cc3C(c3cc(OC)c(O)c(OC)c3)[C@H]3C(=O)OCC32)OCO4)c1 (stereo not given in full)    8.09 µM
18) Cc1cc(O)c(C2=NN(c3ccc(S(N)(=O)=O)cc3)C(c3ccc(N(C)C)cc3)C2)c(C)c1Cl (stereo not given)    30.9 µM
19) CC#C/C(=N\OC[C@H]1COCCN1)c1ccc2ncnc(Nc3ccc(OCc4cccc(F)c4)c(Cl)c3)c2c1    3.41 µM
20) Cc1cc(Nc2c3ccccc3nc3ccccc23)ccc1NS(C)(=O)=O    20.7 µM
21) CC(=O)O[C@H]1CCC2[C@@H]3CCC4=C(O)C(=O)C(C#N)C[C@]4(C)C3CC[C@@]21C (stereo not given in full)    > 100 µM
22) NC(=O)c1coc(C2OC(CO)C(O)C2O)n1 (stereo not given)    > 100 µM
23) C[C@@H]1Cc2c([nH]c3ccccc23)[C@@H](c2c(F)cc(NC3CN(CCCF)C3)cc2F)N1CC(F)(F)CO    4 µM
24) CN(C)CCSc1cccc(-c2cc(-c3cccc(SCCN(C)C)c3)nc(SCCN(C)C)n2)c1    7.76 µM
25) Cc1ccc(NC(=O)C(=O)CC(=O)C2CCOC2=O)c(C)c1 (stereo not given)    > 100 µM
26) N#CC(=C1CCCCC1)c1nc2ccccc2o1    > 100 µM
27) Cc1cc(S(=O)(=O)/N=C(\[N-]S(=O)(=O)c2ccc(Cl)cc2)[n+]2ccc(N(C)C)cc2)c(S)cc1Cl    > 100 µM
28) COc1cc(Nc2ncc(F)c(Nc3ccc4c(n3)NC(=O)C(C)(C)O4)n2)cc(OC)c1OC    > 100 µM
29) Cc1ccc2c(n1)C(=O)C=CC2=O    33.5 µM
30) COC(=O)[C@H](Cc1ccc(O)c(Br)c1)NC(=O)[C@H](Cc1ccc(O)cc1)NC(=O)OC(C)(C)C (Boc-Tyr-[Tyr(3-Br)]-OMe)    > 100 µM
31) CC(C)CC(=O)Nc1n[nH]c2c1CN(C(=O)C1CCN(C)CC1)C2(C)C    > 10 µM
32) CCN(CC)CCN1C(=O)c2c(c(-c3ccccc3)c3ccccc3c2-c2ccccc2)C1=O    > 100 µM
33) COc1ccc(NC(=O)CC/C(CC(=O)C(C)(C)C)=N\NC(=O)C(N)=O)cc1    > 100 µM
34) Cc1cc(-c2nc3ccccc3s2)ccc1N    > 93 µM
35) O=C(c1ccccc1)c1oc2ccc(Br)cc2c1-c1cnn(-c2ccccc2)c1    > 100 µM
36) O=C1C=CC2=[N+]([O-])C(c3ccccc3)(c3ccccc3)C(=Nc3ccccc3)C2=C1    19.6 µM
37) CC1=C(C(=O)NCc2ccccc2)C(c2ccc([N+](=O)[O-])cc2)C(C(=O)NCc2ccccc2)=C(C)N1    > 100 µM
38) COC(=O)c1c(O)c([N+](=O)[O-])cc2c1c1c(n2Cc2ccccc2)C(=O)c2ccccc2C1=O    23.2 µM
39) CC(C)OP(=O)(OC(C)C)/C(C#N)=C/c1ccco1    > 100 µM
40) Cc1oc(N)c(S(=O)(=O)c2ccc(Cl)cc2)c1C    > 100 µM

// data source = PubChem BioAssay (NCI)
